biological target: GDP-bound KRAS wild-type protein (Homo sapiens, UniProt P01116); test: Binding to KRAS by surface plasmon resonance (SPR), Single Cycle Kinetics; conditions: SPR, Single Cycle Kinetics, GDP-bound KRAS wild-type protein; read-out: KRAS KD
Sequence (P01116 whole entry): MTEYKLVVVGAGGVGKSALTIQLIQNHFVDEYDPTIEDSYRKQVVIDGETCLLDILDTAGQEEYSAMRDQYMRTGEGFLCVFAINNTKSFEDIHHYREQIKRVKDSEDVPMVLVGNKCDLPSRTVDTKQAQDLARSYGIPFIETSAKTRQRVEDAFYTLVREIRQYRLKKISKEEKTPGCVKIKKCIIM
*1 amine or outer side, *2 acyl side, *3 side chain or, on linkers, in order; H or OH if unused. Where a SMILES comes first, the peptide text is derived from it. Bridges are numbered along the chain shown (N, C = ends). [ ]: non-standard residue; d: D form. The star is where a group is joined. hPhe(3-Cl-4-CF3) = N[C@@H](CCc1ccc(C(F)(F)F)c(Cl)c1)C(=O)O; NPrPhe(4-CF3) = CCCN[C@@H](Cc1ccc(C(F)(F)F)cc1)C(=O)O; X7 = CCN([C@H](C(=O)[*:2])C1CCCC1)[*:1]; NMeGly(cPent) = CN[C@H](C(=O)O)C1CCCC1; NEtLeu = CCN[C@@H](CC(C)C)C(=O)O; NMeD = CN[C@@H](CC(=O)O)C(=O)O; NMeL = CN[C@@H](CC(C)C)C(=O)O; Morpholide = C1CN(*)CCO1; Ac4c = NC1(C(=O)O)CCC1; Sar = CNCC(=O)O
assay-endpoint: Kd

Give the reported Kd for CCCN1C(=O)CN(C)C(=O)CN(C)C(=O)[C@H]([C@@H](C)CC)NC(=O)[C@H](CC(C)C)N(CC)C(=O)C[C@@H](C(=O)N2CCOCC2)N(C)C(=O)[C@H](C2CCCC2)N(C)C(=O)C2(CCC2)NC(=O)[C@@H]2CCCN2C(=O)[C@H](CCc2ccc(C(F)(F)F)c(Cl)c2)NC(=O)CN(C)C(=O)[C@@H]1Cc1ccc(C(F)(F)F)cc1 [PP1946] ([NEtLeu]I[Sar][Sar][NPrPhe(4-CF3)][Sar][hPhe(3-Cl-4-CF3)]P[Ac4c][NMeGly(cPent)][NMeD]-Morpholide; lactam N-11) (system: GDP-bound KRAS wild-type protein (Homo sapiens, UniProt P01116)). 0.16 nM

Give the reported Kd for CCCN1C(=O)CN(C)C(=O)CN(C)C(=O)[C@H]([C@@H](C)CC)NC(=O)[C@H](CC(C)C)N(C)C(=O)C[C@@H](C(=O)N2CCOCC2)N(C)C(=O)[C@H](C2CCCC2)N(CC)C(=O)C2(CCC2)NC(=O)[C@@H]2CCCN2C(=O)[C@H](CCc2ccc(C(F)(F)F)c(Cl)c2)NC(=O)CN(C)C(=O)[C@@H]1Cc1ccc(C(F)(F)F)cc1 [PP1952] ([NMeL]I[Sar][Sar][NPrPhe(4-CF3)][Sar][hPhe(3-Cl-4-CF3)]P[Ac4c][X7][NMeD]-Morpholide; lactam N-11) (system: GDP-bound KRAS wild-type protein (Homo sapiens, UniProt P01116)). 0.13 nM

Give the reported Kd for CCOC[C@H]1C(=O)N[C@@H]([C@@H](C)CC)C(=O)N(C)CC(=O)N(C)[C@H]2C/C=C\CCN(C2=O)[C@@H](Cc2ccc(C)cc2)C(=O)N(C)CC(=O)N[C@@H](CCc2ccc(C(F)(F)F)c(OC)c2)C(=O)N2C[C@@H](C)C[C@H]2C(=O)NC2(CC(C)(C)C2)C(=O)N(C)[C@@H](C2CCCC2)C(=O)N(C)[C@H](C(=O)N(CC)CC)CC(=O)N1C (system: GDP-bound KRAS wild-type protein (Homo sapiens, UniProt P01116)). 0.31 nM

Give the reported Kd for CCO[C@H]1CCN2C(=O)[C@H](CCc3cc(F)c(C(F)(F)F)c(F)c3)NC(=O)CN(C)C(=O)[C@H](Cc3ccc(C(F)(F)F)cc3)N3CCCC[C@@H](C3=O)N(C)C(=O)CN(C)C(=O)[C@H]([C@@H](C)CC)NC(=O)[C@H](CC(C)C)N(C)C(=O)C[C@@H](C(=O)N3CCOCC3)N(C)C(=O)[C@H](C3CCCC3)N(C)C(=O)C3(CCC3)NC(=O)[C@H]12 (system: GDP-bound KRAS wild-type protein (Homo sapiens, UniProt P01116)). 0.068 nM

Give the reported Kd for CC[C@H](C)[C@@H]1NC(=O)[C@H](CC)N(C)C(=O)C[C@@H](C(=O)N(C)C)N(C)C(=O)[C@H](C2CCCC2)N(C)C(=O)C2(CCC2)NC(=O)[C@@H]2COCCN2C(=O)[C@H](CCc2cc(F)c(C(F)(F)F)c(F)c2)NC(=O)CN(C)C(=O)[C@H](Cc2ccc(C(F)(F)F)cc2)N2CC/C=C\C[C@@H](C2=O)N(C)C(=O)CN(C)C1=O (system: GDP-bound KRAS wild-type protein (Homo sapiens, UniProt P01116)). 0.19 nM

Give the reported Kd for CCO[C@@H]1C[C@H]2C(=O)NC3(CCC3)C(=O)N(C)[C@@H]([C@@H](C)CC)C(=O)N(C)[C@H](C(=O)N(C)C)CC(=O)N(C)[C@@H](CC)C(=O)N[C@@H]([C@@H](C)CC)C(=O)N(C)CC(=O)N(C)[C@H]3C/C=C\CCN(C3=O)[C@@H](Cc3ccc(C(F)(F)F)cc3)C(=O)N(C)CC(=O)N[C@@H](CCc3cc(F)c(C(F)(F)F)c(F)c3)C(=O)N2C1 (system: GDP-bound KRAS wild-type protein (Homo sapiens, UniProt P01116)). 0.095 nM

Give the reported Kd for CC[C@H](C)[C@@H]1NC(=O)[C@H](CC)N(C)C(=O)C[C@@H](C(=O)N(C)CC)N(C)C(=O)[C@H](C2CCCC2)N(C)C(=O)C2(CC(C)(C)C2)NC(=O)[C@@H]2C[C@@H](C)CN2C(=O)[C@H](CCc2ccc(C(F)(F)F)c(Cl)c2)NC(=O)CN(C)C(=O)[C@H](Cc2ccc(C)cc2)N2CC/C=C\C[C@@H](C2=O)N(C)C(=O)CN(C)C1=O (system: GDP-bound KRAS wild-type protein (Homo sapiens, UniProt P01116)). 0.2 nM

Give the reported Kd for CCC[C@@H]1C[C@H]2C(=O)NC3(CCC3)C(=O)N(C)[C@@H](C3CCCC3)C(=O)N(C)[C@H](C(=O)N(C)C)CC(=O)N(C)[C@@H](CCC)C(=O)N[C@@H]([C@@H](C)CC)C(=O)N(C)CC(=O)N(C)[C@H]3C/C=C\CCN(C3=O)[C@@H](Cc3ccc(C)cc3)C(=O)N(C)CC(=O)N[C@@H](CCc3ccc(C(F)(F)F)c(Cl)c3)C(=O)N2C1 (system: GDP-bound KRAS wild-type protein (Homo sapiens, UniProt P01116)). 0.2 nM

Give the reported Kd for CC[C@H](C)[C@@H]1NC(=O)[C@H](CC(F)F)N(C)C(=O)C[C@@H](C(=O)N(C)C)N(C)C(=O)[C@H](C2CCCC2)N(C)C(=O)C2(CC(C)(C)C2)NC(=O)[C@@H]2C[C@H](C)CN2C(=O)[C@H](CCc2cc(F)c(C(F)(F)F)c(F)c2)NC(=O)CN(C)C(=O)[C@H](Cc2ccc(C(F)(F)F)cc2)N2CC/C=C\C[C@@H](C2=O)N(C)C(=O)CN(C)C1=O (system: GDP-bound KRAS wild-type protein (Homo sapiens, UniProt P01116)). 0.12 nM

Give the reported Kd for CC[C@H](C)[C@@H]1NC(=O)[C@H](COC)N(C)C(=O)C[C@@H](C(=O)N2CCOCC2)N(C)C(=O)[C@H](C2CCCC2)N(C)C(=O)C2(CCC2)NC(=O)[C@@H]2CCCN2C(=O)[C@H](CCc2cc(F)c(C(F)(F)F)c(F)c2)NC(=O)CN(C)C(=O)[C@H](Cc2ccc(C(F)(F)F)cc2)N2CCCCC[C@@H](C2=O)N(C)C(=O)[C@@H]2CCN2C1=O (system: GDP-bound KRAS wild-type protein (Homo sapiens, UniProt P01116)). 1.1 nM
